Test system: SMMC-7721
ASSAY_DETAILS: Cytotoxicity against human SMMC7721 cells after 48 hrs by MTT assay
Type: functional, cell-based
CONDITIONS: SMMC-7721, 48 h
pIC50: −log10 of the molar value.
VALUE_TYPE: pIC50

Examples with answers:
SMILES_NOTATION	pIC50
CC1(C)C(=O)CC[C@]2(C)[C@H]3CC[C@@H]4[C@@H]([C@]5(C)C=CC(=O)O5)CC[C@@]4(C)[C@]3(C)CC[C@@H]12	< 5.00
CC(=O)O[C@@H]1CC[C@]2(C)[C@H]3CC[C@@H]4[C@@H]([C@]5(C)C=CC(=O)O5)CC[C@@]4(C)[C@]3(C)CC[C@H]2C1(C)C	< 5.00

Now examine the next entry.
So for `CC(=O)[C@H]1CC[C@]2(C)[C@@H]1CC[C@@H]1[C@@]3(C)CC[C@@H](O)C(C)(C)[C@@H]3CC[C@]12C` , the logged pIC50 turned out to be < 5.00
